# System: HPAF-II cells
# Experiment Summary: HPAF-II Cell Proliferation Assay
# Assay type: cell-based
# Recorded Conditions: Homo sapiens, HPAF-II, HPAF-II cells; Table 2; read-out: Inhibition of cell proliferation in HPAF-II (IC50 class)
Listing: IC50 of selected molecules
Outcome Measure: IC50

Molecule	Outcome Measure	Result
Cc1ccc(NC(=N)c2cc(C3CC3)cnn2)cc1-c1ccnc(-c2ccnc(NC(=O)C3CC3)c2)c1 [Example 87]	IC50	1000 to 10000 nM
Cc1ccc(NC(=O)c2cc(C(F)(F)F)cnn2)cc1-c1ccnc(-c2ccnc(NC(=O)C3CN(C)CC3(F)F)c2)c1 (stereo not shown) [Example 94]	IC50	1000 to 10000 nM
Cc1ccc(NC(=O)c2cc(C(F)(F)F)cnn2)cc1-c1cncc(-c2cc(NC(=O)C(F)(F)F)ncn2)c1 [Example 125]	IC50	500 to 1000 nM
Cc1ccc(NC(=N)c2cc(C(F)(F)F)cnn2)cc1-c1ccnc(-c2ccnc(NC(=O)C3CC3)c2)c1 [Example 86]	IC50	1000 to 10000 nM
COc1cnnc(C(=O)Nc2ccc(C)c(-c3ccnc(-c4ccnc(NC(=O)C5CC5)c4)c3)c2)c1 [Example 49]	IC50	100 to 500 nM
Cc1ccc(NC(=O)c2ccc(C(F)(F)F)nn2)cc1-c1cncc(-c2cc(NC(=O)C3CC3)ncn2)c1 [Example 23]	IC50	1000 to 10000 nM
Cc1ccc(NC(=O)c2cc(C(F)(F)F)cnn2)cc1-c1ccnc(-c2ccnc(NC(=O)CN(C)C)c2)c1 [Example 52]	IC50	100 to 500 nM
Cc1ccc(NC(=O)c2cc(C3CCC3)cnn2)cc1-c1ccnc(-c2ccnc(NC(=O)C3CC3)c2)c1 [Example 44]	IC50	100 to 500 nM
Cc1ccc(NC(=O)c2cc(N)cnn2)cc1-c1ccnc(-c2ccnc(NC(=O)C3CC3)c2)c1 [Example 99]	IC50	1000 to 10000 nM
Cc1ccc(NC(=O)c2cc(C(C)(F)F)cnn2)cc1-c1cc(NCCO)nc(-c2ccnc(NC(=O)C3CC3)c2)c1 [Example 101]	IC50	100 to 500 nM

----------
# Target Or System: C-Raf kinase (SEQ ID NO: 2) (Homo sapiens, UniProt P04049, Y340D/Y341D)
# Construct: C-Raf residues 306-end; Y340D, Y341D with; GST (N); purchased Sigma
# Sequence (P04049 307-648 Y340D/Y341D): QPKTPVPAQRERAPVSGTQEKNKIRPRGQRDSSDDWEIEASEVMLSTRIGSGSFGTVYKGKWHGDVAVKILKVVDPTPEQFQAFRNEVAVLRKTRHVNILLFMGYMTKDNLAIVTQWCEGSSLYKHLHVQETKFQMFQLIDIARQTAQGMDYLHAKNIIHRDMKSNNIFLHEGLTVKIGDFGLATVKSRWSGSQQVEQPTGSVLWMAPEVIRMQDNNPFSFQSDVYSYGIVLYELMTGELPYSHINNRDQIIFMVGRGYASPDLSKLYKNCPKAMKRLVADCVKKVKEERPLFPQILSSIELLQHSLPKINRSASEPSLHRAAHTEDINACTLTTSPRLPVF
# Experiment Summary: Biochemical Assay for C-Raf (coupled pyruvate kinase/lactate dehydrogenase assay)
# Recorded Conditions: 1 mM ATP; read-out: CRAF (inhibition of biochemical activity, IC50)
Listing: IC50 of selected compounds

Compound Smiles	IC50
Cc1ccc(NC(=O)c2cc(C(C)(F)F)cnn2)cc1-c1ccnc(-c2ccnc(NC(=O)C3CC3)c2)c1	< 0.1 µM
Cc1ccc(NC(=O)c2cc(C(F)(F)F)cnn2)cc1-c1cncc(-c2ccnc(NC(=O)C3CC3)c2)c1	< 0.1 µM
Cc1cc(-c2cc(NC(=O)c3cncc(C(C)(F)F)c3)ccc2C)cc(-c2ccnc(NC(=O)C3CC3)c2)n1	< 0.1 µM
Cc1ccc(NC(=O)c2cc(C(C)C)cnn2)cc1-c1ccnc(-c2ccnc(NC(=O)C3CC3)c2)c1	< 0.1 µM
COC(=O)Nc1cc(-c2cc(-c3cc(NC(=O)c4ccc(C(F)(F)F)nc4)cnc3C)ccn2)ccn1	0.1 to 0.5 µM
Cc1ccc(NC(=O)c2cc(C(F)(F)F)cnn2)cc1-c1ccnc(-c2cscn2)c1	0.5 to 1 µM

----------
Listing: pIC50 of selected molecules
# Test system: MiaPaca-2 cells
# Experiment Summary: MiaPaca-2 Cell Proliferation Assay
# Type: cell-based
# Recorded Conditions: Homo sapiens, MIA PaCa-2, MiaPaca-2 cells; Table 2; read-out: Inhibition of cell proliferation in MiaPaca-2 (IC50 class)
pIC50: −log10 of the molar value.
Outcome Measure: pIC50

Compound Smiles	Result
Cc1ccc(NC(=O)c2cc(C(F)(F)F)cnn2)cc1-c1ccnc(-c2ccnc(NC(=O)C3(F)CC3)c2)c1	6.30 to 7.00
Cc1ccc(NC(=O)c2cc(C(C)C)cnn2)cc1-c1cncc(-c2cc(NC(=O)C3CC3)ncn2)c1	6.00 to 6.30
CCNc1cc(-c2cc(-c3cc(NC(=O)c4cc(C(F)(F)F)cnn4)ccc3C)ccn2)ccn1	6.30 to 7.00
Cc1ccc(NC(=O)c2cc(C(C)(F)F)cnn2)cc1-c1ccnc(-c2ccsc2)c1	6.30 to 7.00
Cc1ccc(NC(=O)c2ccc(C(F)F)nc2)cc1-c1ccnc(-c2ccnc(NC(=O)C3CC3)c2)c1	6.00 to 6.30
Cc1ccc(NC(=O)c2cc(C3CC3)cnn2)cc1-c1cc(NCCO)nc(-c2ccnc(NC(=O)C3CC3)c2)c1	6.30 to 7.00
Cc1ccc(NC(=O)c2cc(C(F)(F)F)cnn2)cc1-c1cc(OCCO)nc(-c2cn[nH]c2)c1	> 7.00
Cc1ccc(NC(=O)c2cnc(C(F)(F)F)nc2)cc1-c1ccnc(-c2cn[nH]c2)c1	> 7.00
Cc1ccc(NC(=O)c2cc(C3CC3)cnn2)cc1-c1ccnc(-c2ccoc2)c1	6.30 to 7.00
Cc1ccc(NC(=O)c2cc(C(F)(F)F)cnn2)cc1-c1ccnc(-c2ccnc(NC(=O)CC3(C)CC3)c2)c1	6.30 to 7.00
Cc1ccc(NC(=O)c2cc(C(C)(F)F)cnn2)cc1-c1ccnc(-c2cncn2C)c1	6.30 to 7.00
Cc1ccc(NC(=O)c2cnc(C(F)(F)F)nc2)cc1-c1ccnc(-c2ccnc(NC(=O)C3CC3)c2)c1	6.30 to 7.00
CC(=O)Nc1cc(-c2nccc(-c3cc(NC(=O)c4ccc(C(F)F)nc4)ccc3C)n2)ccn1	6.30 to 7.00
Cc1ccc(NC(=O)c2cc(C3CC3)cnn2)cc1-c1cncc(-c2cc(NC(=O)C3CC3)ncn2)c1	5.00 to 6.00
Cc1ccc(NC(=O)c2cc(C(F)(F)F)cnn2)cc1-c1ccnc(-c2cncn2C)c1	6.30 to 7.00
Cc1ccc(NC(=O)c2cc(C(F)(F)F)cnn2)cc1-c1ccnc(-c2cscn2)c1	6.00 to 6.30
Cc1ccc(NC(=O)c2cc(C(F)(F)F)cnn2)cc1-c1cncc(-c2ccnc(NC(=O)C3CC3)c2)c1	6.00 to 6.30
Cc1ccc(NC(=O)c2ccc(C(F)(F)F)nc2)cc1-c1cncc(-c2cc(NC(=O)C3CC3)ncn2)c1	5.00 to 6.00
CNCC(=O)Nc1cc(-c2cc(-c3cc(NC(=O)c4cc(C(F)(F)F)cnn4)ccc3C)ccn2)ccn1	6.30 to 7.00
Cc1ccc(NC(=O)c2ccc(C(F)(F)F)nn2)cc1-c1cncc(-c2cc(NC(=O)C3CC3)ncn2)c1	5.00 to 6.00
Cc1ccc(NC(=O)c2cc(C(F)(F)F)cnn2)cc1-c1ccnc(-c2cnn(C)n2)c1	6.30 to 7.00
CC(=O)Nc1cc(-c2cc(-c3cc(NC(=O)c4ccc(C(F)(F)F)nc4)ccc3C)nn(C)c2=O)ccn1	5.00 to 6.00

----------
Listing: IC50 of selected molecules
# Tested on: HPAF-II cells
# Experiment Summary: HPAF-II Cell Proliferation Assay
# Type: cell-based
# Recorded Conditions: Homo sapiens, HPAF-II, HPAF-II cells; Table 2; read-out: Inhibition of cell proliferation in HPAF-II (IC50 class)

Molecule	IC50
Cc1ccc(NC(=O)c2cc(C(F)(F)F)cnn2)cc1-c1ccnc(-c2ccnc(NC(=O)C3CNCC3(F)F)c2)c1 (stereo not shown)	500 to 1000 nM
Cc1ccc(NC(=O)c2ccc(C(C)(F)F)nc2)cc1-c1ccnc(-c2ccnc(NC(=O)C3CC3)c2)c1	100 to 500 nM
Cc1ccc(NC(=O)c2cncc(C(F)(F)F)n2)cc1-c1cncc(-c2cc(NC(=O)C3CC3)ncn2)c1	1000 to 10000 nM
Cc1ccc(NC(=O)c2cc(C(F)(F)F)cnn2)cc1-c1ccnc(-c2cnsc2)c1	100 to 500 nM

----------
# Test system: MiaPaca-2 cells
# Experiment Summary: MiaPaca-2 Cell Proliferation Assay
# Format: cell-based
# Recorded Conditions: Homo sapiens, MIA PaCa-2, Table 3; read-out: MiaPaca-2 (IC50 class)

Molecule	IC50
Cc1ccc(NC(=O)c2cc(C(F)(F)F)cnn2)cc1-c1cc(N[C@H](C)CO)nc(-c2ccnc(NC(=O)C3CC3)c2)c1 [Example 45]	100 to 500 nM
Cc1ccc(NC(=O)c2cc(C(F)(F)F)cnn2)cc1-c1cc(N[C@H](C)CO)nc(-c2cn[nH]c2)c1 [Example 119]	< 100 nM
Cc1ccc(NC(=O)c2cc(C(C)(C)F)cnn2)cc1-c1ccnc(-c2ccnc(NC(=O)C3CC3)c2)c1 [Example 59]	100 to 500 nM
Cc1ccc(NC(=O)c2cncc(C(F)(F)F)c2)cc1-c1cncc(-c2cc(NC(=O)C3CC3)ncn2)c1 [Example 66]	100 to 500 nM
Cc1ccc(NC(=O)c2cc(C3CC3)cnn2)cc1-c1ccnc(-c2ccnc(NC(=O)C3CC3)c2)c1 [Example 43]	< 100 nM
Cc1ccc(NC(=O)c2cc(C#N)cnn2)cc1-c1ccnc(-c2ccnc(NC(=O)C3CC3)c2)c1 [Example 96]	< 100 nM
Cc1ccc(NC(=O)c2cc(C(F)(F)F)cnn2)cc1-c1ccnc(-c2ccnc(NC(=O)C3CC3)c2)c1 [Example 67]	< 100 nM
